B1: Intersectin-1, residues 1156 to 1213; numbered along this chain, Q15811 (parent)
chain: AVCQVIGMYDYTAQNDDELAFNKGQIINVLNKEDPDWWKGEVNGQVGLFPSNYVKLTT

- Variants of: B1
- measurement_notes: abundance fitness (aPCA) (normalised: wild type 0, dead -1); higher = more abundant; growth selection in yeast, the domain comes from the species named
- run_conditions: Homo sapiens
// label = yes if abundance fitness is not less than -0.6, otherwise no

Worked examples, 3 variants total:
residue_change	group
D34V	no
V2C	yes
W38K	no

## Task Given the entry K23T , answer whether its abundance fitness meets or surpasses -0.6.
## Result yes

## Task Repeat for the following variant: G44K
## Result no

## Task Let us now turn to A20I
## Result no

## Task Also A1S ?
## Result yes

## Task Proceed to K32T
## Result yes

## Task Similarly, G47K ?
## Result yes
